- Measurement Target: transient receptor potential ankyrin 1 (TRPA1) (Homo sapiens)
- Sequence (O75762 whole entry): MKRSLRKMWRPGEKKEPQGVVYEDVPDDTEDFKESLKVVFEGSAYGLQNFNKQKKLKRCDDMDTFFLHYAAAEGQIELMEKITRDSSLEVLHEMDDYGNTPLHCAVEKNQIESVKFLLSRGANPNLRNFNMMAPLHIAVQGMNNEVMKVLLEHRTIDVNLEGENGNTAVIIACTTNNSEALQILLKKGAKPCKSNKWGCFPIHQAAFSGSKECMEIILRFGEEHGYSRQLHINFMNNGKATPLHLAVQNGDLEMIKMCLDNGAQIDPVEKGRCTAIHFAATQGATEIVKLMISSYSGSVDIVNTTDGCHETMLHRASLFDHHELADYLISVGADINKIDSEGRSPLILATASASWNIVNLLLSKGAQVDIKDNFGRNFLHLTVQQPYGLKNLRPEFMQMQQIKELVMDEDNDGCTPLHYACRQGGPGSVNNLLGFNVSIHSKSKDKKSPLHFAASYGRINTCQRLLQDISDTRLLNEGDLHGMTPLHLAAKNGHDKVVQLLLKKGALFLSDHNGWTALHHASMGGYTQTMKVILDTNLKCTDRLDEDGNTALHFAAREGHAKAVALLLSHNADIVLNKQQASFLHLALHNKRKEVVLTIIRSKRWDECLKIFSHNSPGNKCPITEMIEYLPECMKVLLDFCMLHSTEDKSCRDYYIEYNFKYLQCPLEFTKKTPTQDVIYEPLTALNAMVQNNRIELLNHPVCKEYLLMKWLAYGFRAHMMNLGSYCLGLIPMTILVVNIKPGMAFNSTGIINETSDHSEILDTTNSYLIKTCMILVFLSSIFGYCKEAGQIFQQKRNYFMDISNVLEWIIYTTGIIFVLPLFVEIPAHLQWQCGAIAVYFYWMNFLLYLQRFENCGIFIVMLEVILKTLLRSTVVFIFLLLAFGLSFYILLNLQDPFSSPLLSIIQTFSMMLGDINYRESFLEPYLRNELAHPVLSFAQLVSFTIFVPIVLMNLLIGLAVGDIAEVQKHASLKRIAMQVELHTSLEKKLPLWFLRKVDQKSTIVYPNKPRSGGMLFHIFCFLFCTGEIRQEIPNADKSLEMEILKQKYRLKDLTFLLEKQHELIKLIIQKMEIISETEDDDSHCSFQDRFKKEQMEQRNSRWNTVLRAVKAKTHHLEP
- Test Description: calcium imaging (and whole-cell patch clamp) in hTRPA1-HEK293 cells, blocked by HC-030031, absent in untransfected cells
Endpoint: EC50 (µM)
Dear colleague, please return just the value in µM, with no unit written.

Some molecules with recorded EC50:
C=C1C[C@@H]2[C@H](CC[C@]3(C)C(=O)CC[C@@H]23)[C@@]2(C)C=CC(=O)C=C12 : 58
CC(C)(C#N)c1cc(Cn2cncn2)cc(C(C)(C)C#N)c1 : 134

Attention now shifts to the item below.
response.value for `N#Cc1ccc(C(c2ccc(C#N)cc2)n2cncn2)cc1` (field: EC50) = 69
